Hello, the source for this data is patent US20100254975A1, in case you need it.

Biological target: T1, human alpha4beta7 (human, UniProt P13612 34-1032; P26010 20-798)
T1 construct: whole, on cells; also called a4b7; wt
T1 sequence (P13612 34-1032, chain 1 of 2): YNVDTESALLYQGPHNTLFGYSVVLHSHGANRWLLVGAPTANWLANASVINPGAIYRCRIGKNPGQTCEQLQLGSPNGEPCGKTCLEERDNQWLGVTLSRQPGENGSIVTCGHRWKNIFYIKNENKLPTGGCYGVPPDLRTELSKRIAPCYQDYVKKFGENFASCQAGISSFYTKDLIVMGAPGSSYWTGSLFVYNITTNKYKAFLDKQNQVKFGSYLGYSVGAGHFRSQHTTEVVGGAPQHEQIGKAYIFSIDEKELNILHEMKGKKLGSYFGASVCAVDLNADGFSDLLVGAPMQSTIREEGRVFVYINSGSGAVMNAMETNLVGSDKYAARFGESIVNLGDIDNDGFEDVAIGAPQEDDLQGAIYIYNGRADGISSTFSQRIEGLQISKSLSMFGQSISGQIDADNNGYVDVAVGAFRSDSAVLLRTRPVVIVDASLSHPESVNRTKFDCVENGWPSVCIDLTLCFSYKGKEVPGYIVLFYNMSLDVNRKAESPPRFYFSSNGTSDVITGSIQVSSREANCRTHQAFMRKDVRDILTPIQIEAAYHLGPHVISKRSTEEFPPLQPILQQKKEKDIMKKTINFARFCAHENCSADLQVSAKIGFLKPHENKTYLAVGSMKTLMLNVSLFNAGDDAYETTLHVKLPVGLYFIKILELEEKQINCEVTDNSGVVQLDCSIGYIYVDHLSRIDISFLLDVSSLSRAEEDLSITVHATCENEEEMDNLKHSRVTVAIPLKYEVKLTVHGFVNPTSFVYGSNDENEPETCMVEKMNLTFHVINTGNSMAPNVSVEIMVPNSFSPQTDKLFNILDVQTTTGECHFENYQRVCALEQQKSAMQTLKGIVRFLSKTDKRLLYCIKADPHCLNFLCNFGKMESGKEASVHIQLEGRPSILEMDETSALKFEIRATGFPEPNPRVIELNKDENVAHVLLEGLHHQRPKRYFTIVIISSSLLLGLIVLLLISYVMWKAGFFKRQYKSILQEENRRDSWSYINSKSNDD
T1 sequence (P26010 20-798, chain 2 of 2): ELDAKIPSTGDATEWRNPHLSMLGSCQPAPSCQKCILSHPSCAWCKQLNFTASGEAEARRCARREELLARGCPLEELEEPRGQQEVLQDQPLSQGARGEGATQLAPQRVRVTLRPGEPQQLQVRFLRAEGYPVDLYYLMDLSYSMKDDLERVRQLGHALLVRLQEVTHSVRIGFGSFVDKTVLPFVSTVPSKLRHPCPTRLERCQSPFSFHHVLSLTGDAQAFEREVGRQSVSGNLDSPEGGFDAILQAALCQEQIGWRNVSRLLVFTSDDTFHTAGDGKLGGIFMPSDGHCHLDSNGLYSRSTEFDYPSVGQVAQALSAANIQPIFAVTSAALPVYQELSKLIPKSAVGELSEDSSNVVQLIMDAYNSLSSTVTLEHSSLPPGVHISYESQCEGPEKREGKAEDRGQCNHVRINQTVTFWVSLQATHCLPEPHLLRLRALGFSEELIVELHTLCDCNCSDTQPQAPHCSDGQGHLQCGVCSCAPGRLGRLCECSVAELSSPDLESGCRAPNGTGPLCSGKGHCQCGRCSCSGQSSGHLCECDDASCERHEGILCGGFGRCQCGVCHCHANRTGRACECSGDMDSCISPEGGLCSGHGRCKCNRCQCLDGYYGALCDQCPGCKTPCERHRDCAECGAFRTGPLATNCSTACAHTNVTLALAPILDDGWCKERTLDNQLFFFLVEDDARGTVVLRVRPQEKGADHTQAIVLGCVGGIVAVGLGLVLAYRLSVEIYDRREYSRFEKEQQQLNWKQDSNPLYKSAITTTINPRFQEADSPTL
Experiment: FACS competition, blocks biotinylated MAdCAM-1-Fc binding to human CD4+CD45RA- memory T cells
outcome.measure: IC50 (ng/mL)

binder	units.label	recorded.number
1A10 (antibody, V domains shown, Fully human monoclonal from XenoMouse XG2kl or XG4kl mice (human IgG2 or IgG4); kappa light chain; also called 1A10K; 1A10H) VH: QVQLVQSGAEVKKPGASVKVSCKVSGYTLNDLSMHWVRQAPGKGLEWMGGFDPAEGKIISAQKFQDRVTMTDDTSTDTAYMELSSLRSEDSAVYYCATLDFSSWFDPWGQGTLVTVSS VL: DIQMTQSPSSVSASVGDRVTITCRASQGVSSWLAWYQQKPGMAPKLLIYAASILQSGVPSRFSGSGSGTDFTLTISSLQPEDFATYYCQQANSFPWTFGQGTKVEIK	ng/mL	6.2
27G8 (antibody, V domains shown, Fully human monoclonal from XenoMouse (human IgG2 or IgG4); lambda light chain; PE-conjugated in the cynomolgus study; also called 27G8L; 27G8H) VH: EVQLVESGGGLVQPGGSLRLSCAASGFTFSSYWMSWVRQASGKGLEWVANIKQDGSEKYYVDSVKGRFTISRDNAKNSLYLQMNSLRAEDTAVYYCAREGGYDWNYADYYGMDVWGQGTTVTVSS VL: QSVLTQPPSVSEAPRQRVTISCSGSNSNIGNNPVNWYQLFPGRAPKLLIYHDDLLPSGVSDRFSGSRSGTSASLAISGLQSEDETDYYCTAWDDSLNGWVFGGGTKLTVL	ng/mL	8.7
2F12 (antibody, V domains shown, Fully human monoclonal from XenoMouse (human IgG2 or IgG4); kappa light chain; also called 2F12K; 2F12H) VH: QVQLVQSGAEVKKPGASVKVSCKVSGYTVTDLSMHWVRQAPGKGLEWMGGFDPQDGETIYAQKFQGRVTMTEDTSTDTAYMELRSLRSEDTAVYYCTTESSSAWFDPWGQGTLVTVSS VL: DIQMTQSPSSVFASVGDRVTITCRASQGISSWLAWYQQKPGKAPNLLIYGASSLQNGVPLRFSGSGSGTDFTLTISSLQPEDFATYYCQQANSFPWTFGQGTKVEIK	ng/mL	4.6
26H3 (antibody, V domains shown, Fully human monoclonal from XenoMouse (human IgG2 or IgG4); kappa light chain; also called 26H3K; 26H3H) VH: EVQLVQSGAEVKKPGESLKISCKGSGYSFTGYWIGWVRQMPGKGLEWMGIIYPYDSDTRYSPSFQGQVTISADKSINTAYLQWSSLKASDTAMFYCASHRLWLGEFPGPLNIWGQGTMVTVSS VL: DIQMTQSPSSLSASVGDRVTITCQASQDISNYLNWYQQKPGKAPKLLIYDASNLETGVPSRFSGSGSGTDFTFTINSLQPEDIATYFCQQYDNLPCSFGQGTKLEIK	ng/mL	14.1
3A5 (antibody, V domains shown, Fully human monoclonal from XenoMouse (human IgG2 or IgG4); kappa light chain; also called 3A5K; 3A5H) VH: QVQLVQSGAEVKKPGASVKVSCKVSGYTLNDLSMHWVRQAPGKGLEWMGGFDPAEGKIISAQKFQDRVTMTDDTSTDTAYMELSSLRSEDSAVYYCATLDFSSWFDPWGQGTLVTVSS VL: DIQMTQSPSSVSASVGDRVTITCRASQGVISWLAWYQQKPGMAPKLLIYAASILQSGVPSRFSGSGSGTDFTLTISSLQPEDFATYYCQQANSFPWTFGQGTNVEIK	ng/mL	6.2
